# EXPERIMENTAL PROTOCOL: soluble on expression in E. coli; label from the status in PepcDB or PDB records
QUANTITY: soluble on expression in E. coli

Past entries and their recorded results:
1. MSLNHPSSTPVPPLDATPARALGEFIRAHRERLSPQAVGLPPGPRRRTPGLRREEVAQLCGVSPTWYTWIEQGRPVSASADALARIAVALQLSKAERAYLFELAAQRDPAEPDVAGGDLPPTLAATVAAIATPAYVMDRQWNALAWNTPAAALFSGWLDGEHDRNLLRFTFMSPAARTLIVDWETRARRMAAEFRADSIRHLTDAPTRALIDALTAGSDAFAQYWASQDVFEREGGLREFDHPADGRMVYQQITLKPAHREDLKLVVLVRDEGHHHHHH | soluble
2. MMEVRINKFLSEAGVASRRKAEKLILEGRVKVNGEVVRSLGVKVNPEVDIVEVDGKPVKPQRKRYIILNKPCCYLTQLGRSPDGRKTIEELIKDIPERVFPVGRLDYNTEGLLILTNDGELANRILHPRYKLPKVYLALVEGKVDQKTLKRMKQGIELEDGFAKPDNIRIVRYEGKNTLLEITFHEGRKHLVKRFLGAFGHKVKRLKRIAIGPIKLGKLSPGKWRELNQGELAQLFKAVGLKYVPRKRRLEHHHHHH | soluble
3. AIAESTKSNDIPILRNVSDSFSDHYGKYLQRCGIFVPKDGDSSGPDAYVVFHNGQTRYVVAFSFTFYHKTEFSKRDIEKEAEQFFQEVISVLNDGSPSSVQLCFQFVVVCTRYDRSVVFSSEEQNIVEDASYLVTEHSAGSTLNESRRSCLQLVVVSQRNLERFLGRENFDILRKIGKASREEFRKDFSVWCKTVFESMSDEYVSPLEAKPFNVTLRVARNIRPRTNEENRMQMEGFQTAMQVEEGNTRGEQRVAASSSLSSSFDWNTFLREYCGLSEEDVAYCLPKVEDIDMDELPAVTKEILRDLGIDKPALRLKIRSSIRSYLANER | soluble
4. DLPGVVIFLHGVNDPGASYESVETGLCQGVNERLDRPDLVPGRYGGKYKEAGNVPYEKRDSDQKVILDDPDTYLYRRDASDPKTHSLLIPFYWGHRAAPDQIKRDDAGDPFRMRNQFQDINGNRLDRHFAKAGGFIANATNNIPDVYGEGFRPNLKSIALETFKPDNALYFGHSPARHYCVLAAHRLAMLIREIRRVSPDETITIMGHSQGTIVTLLAQALLVDGGDRCADTFIMVDTPYCVLPGNTPKDQDTFSTLVGIVTAITNMPHTQPAMSELRDAKTYCGRSGSRWLPTQGIRKNKVGSMTVFPERDNRGKVYLYFCPDDTTVSLDDVQ | not soluble
5. MRRVMIPKPGGGERPLGIPTIRDRVVQAAAKIVLEPIFEADFEDGAYGYRPRRNAVDAVKEVHRLMCRGYTDVVDADLSKYFDTIPHSDLLKSVARRIVDRNVLRLIKLWLRVPVEERDSNGKRRMSGGKSNKCGTPQGGVMVPLEHHHHHH | not soluble

Recorded soluble on expression in E. coli of "GMLESVRKEWLEIMDRELLEKARSLINANYISTTLSTVDRNYEVNIAVISVLEMIGDDTIICARFGADKTYANLKETGKGVFMVLLTDNDKSKDGIRVYVELSADLQEGEYFDRIKKRLDNTTYKNFPLKNCLVFKIVKILPVSLLRK" , please. soluble
